- TGT: human leukocyte elastase (Homo sapiens)
- ASSAY_PROCEDURE: elastase inhibition using human leukocyte elastase (kon and Ki*)
- Type: biochemical
- CONDITIONS: rate of inactivation of enzyme; value is 10^-3 × kon; read-out: Elastase 10^-3 × kon
METRIC_NAME: kon (M⁻¹ s⁻¹)
Report as a plain number; the unit M⁻¹ s⁻¹ is understood.

Quick note, kon for Cc1nnc(SCN2C(=O)c3ccccc3S2(=O)=O)s1 [Example 30AB] landed at 2800

# molecule CC(C)c1cccc2c1C(=O)N(Cn1nnn(-c3cccnc3)c1=S)S2(=O)=O [Example 30Z] ; its kon = 70000

Lab note: O=C1c2c(Cl)cccc2S(=O)(=O)N1CCl [Example 3, 2-chloromethyl-4-chlorosaccharin] gave kon of 450000

Consider O=C1c2c(-c3ccccc3)cccc2S(=O)(=O)N1CCl [Example 18, 2-chloromethyl-4-phenylsaccharin] . Its measured kon is 1000

# molecule O=C1c2ccccc2C(=O)N1CN1C(=O)c2ccccc2S1(=O)=O [Example 30BF] ; its kon = 20

# kon of O=C1c2ccccc2S(=O)(=O)N1CSc1nnc(S)s1 [Example 30AH] = 1100

In plain terms, O=C1c2c(Br)cccc2S(=O)(=O)N1CCl [Example 21, 2-chloromethyl-4-bromosaccharin] has a documented kon of 950000

// sample COCCOCCOc1ccc(OC)c2c1S(=O)(=O)N(CSc1nnnn1-c1ccccc1)C2=O [Example 30M] , its kon was 1000

---

Would you mind telling me the reported Ki of each entry?
Quick reminder: number only, in nM, skip the unit.

Query CC(=O)Nc1cccc(-n2nnnc2SCN2C(=O)c3ccccc3S2(=O)=O)c1 on UniProt P00766; Ki returned: 300

Note to self: Ki of Cn1nnnc1SCN1C(=O)c2ccccc2S1(=O)=O with UniProt P00766 was 523

Reading of Ki for O=C1c2c(Cl)cccc2S(=O)(=O)N1Cn1nnn(-c2ccccc2)c1=S with UniProt P00766: 25

So the reported Ki for O=C1c2ccccc2S(=O)(=O)N1C[S+]([O-])c1ncccn1 (centres unmarked) , on UniProt P00766, turned out to be 423

Form: item O=C1c2c(-c3ccccc3)cccc2S(=O)(=O)N1CCl ; test system UniProt P00766; Ki: 620

Record for O=C1c2ccccc2S(=O)(=O)N1C[S+]([O-])c1nnnn1-c1ccccc1 (centres unmarked) under target or system UniProt P00766: Ki reported as 157

GET /values?item= O=C1c2ccccc2S(=O)(=O)N1CS(=O)(=O)c1ncccn1 &system= UniProt P00766 returns Ki: 392

The recorded Ki with UniProt P00766 for O=C1c2c(Cl)cccc2S(=O)(=O)N1CCl was 26

Value (Ki, UniProt P00766) for record O=C1c2ccccc2S(=O)(=O)N1CS(=O)(=O)c1ccccc1 = 1000

Entry CC(=O)OCN1C(=O)c2c(Cl)cccc2S1(=O)=O , tested on UniProt P00766, has a reported Ki of 51

Sample CC(=O)OCN1C(=O)c2c(C)cccc2S1(=O)=O , system: UniProt P00766. Its Ki is 917

---

- TGT: human leukocyte elastase (Homo sapiens)
- Sequence (P08246 30-267): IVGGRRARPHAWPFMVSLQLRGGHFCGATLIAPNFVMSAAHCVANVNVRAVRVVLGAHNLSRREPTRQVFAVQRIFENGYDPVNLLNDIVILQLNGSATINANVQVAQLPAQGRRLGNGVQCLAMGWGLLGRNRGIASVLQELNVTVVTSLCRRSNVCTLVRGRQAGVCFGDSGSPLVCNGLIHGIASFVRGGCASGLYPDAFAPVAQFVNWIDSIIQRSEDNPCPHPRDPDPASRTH
- ASSAY_PROCEDURE: elastase inhibition using human leukocyte elastase (kon and Ki*)
- Format: biochemical
- CONDITIONS: rate of inactivation of enzyme; value is 10^-3 × kon; read-out: Elastase 10^-3 × kon
Could you label it y if measured kon is 3000 M⁻¹ s⁻¹ or higher, and n otherwise?

Ask | Reported kon reaches at least 3000 M⁻¹ s⁻¹ for Cc1ccc(C)c2c1C(=O)N(CCl)S2(=O)=O ?
Reply | n

Ask | Evaluate O=C1c2cccc(Cl)c2S(=O)(=O)N1CCl [Example 22D] : kon at minimum 3000 M⁻¹ s⁻¹?
Reply | y

Ask | Determine whether this compound has kon no lower than 3000 M⁻¹ s⁻¹: COc1ccc2c(c1OC)C(=O)N(CCl)S2(=O)=O [Example 22F]
Reply | y

Ask | Is reported kon greater than or equal to 3000 M⁻¹ s⁻¹ here: CCOc1cccc2c1C(=O)N(CSc1nnnn1-c1ccccc1)S2(=O)=O [Example 30AT]
Reply | y

Ask | Is kon at least 3000 M⁻¹ s⁻¹? Consider CN(C)C(=O)Cn1nnnc1SCN1C(=O)c2ccccc2S1(=O)=O [Example 30AS]
Reply | n

Ask | Is the recorded value of kon equal to or greater than 3000 M⁻¹ s⁻¹ for this compound? O=C(O)Cn1nnnc1SCN1C(=O)c2ccccc2S1(=O)=O
Reply | n

Ask | Identify whether the reported kon of the following compound is 3000 M⁻¹ s⁻¹ or greater: O=C1c2ccccc2S(=O)(=O)N1CS(=O)(=O)c1ccccc1
Reply | n

Ask | Does Cn1nnc(SCN2C(=O)c3ccccc3S2(=O)=O)n1 [Example 30X] have a reported kon of at least 3000 M⁻¹ s⁻¹?
Reply | n

Ask | kon >= 3000 M⁻¹ s⁻¹ for CC(=O)OCN1C(=O)c2c(C)cccc2S1(=O)=O ?
Reply | n

Ask | Tell me whether kon is at least 3000 M⁻¹ s⁻¹ here: Cn1cnnc1SCN1C(=O)c2ccccc2S1(=O)=O [Example 30AC]
Reply | n

Ask | # check: kon of CC(C)c1cccc2c1C(=O)N(Cn1nnn(-c3ccccc3)c1=S)S2(=O)=O [Example 30AJ] is greater than or equal to 3000 M⁻¹ s⁻¹
Reply | n

Ask | Given the entry CC(C)Oc1cccc2c1C(=O)N(CSc1nnnn1-c1ccccc1)S2(=O)=O [Example 30AU] , answer whether its kon meets or surpasses 3000 M⁻¹ s⁻¹.
Reply | y

Ask | // inclusive: kon at least 3000 M⁻¹ s⁻¹? input: CCOc1ccc(OCCOCCOC)c2c1C(=O)N(CSc1nnnn1-c1ccccc1)S2(=O)=O [Example 30L]
Reply | y

Ask | # check: kon of O=C1c2ccccc2S(=O)(=O)N1CS(=O)(=O)c1ncccn1 is greater than or equal to 3000 M⁻¹ s⁻¹
Reply | n

Ask | Exam item: decide whether the reported kon for CC(=O)OCN1C(=O)c2c(Cl)cccc2S1(=O)=O is at least 3000 M⁻¹ s⁻¹.
Reply | y

Ask | Check if kon >= 3000 M⁻¹ s⁻¹ (inclusive). Item: O=C1c2ccccc2S(=O)(=O)N1CSc1nc2ccc([N+](=O)[O-])cc2o1 [Example 30BE]
Reply | y

---

Could you please report measured kon for the items listed next?
- TGT: human leukocyte elastase (Homo sapiens, UniProt P08246)
- ASSAY_PROCEDURE: elastase inhibition using human leukocyte elastase (kon and Ki*)
- Type: biochemical
- CONDITIONS: rate of inactivation of enzyme; value is 10^-3 × kon; read-out: Elastase 10^-3 × kon
Respond numerically; units are M⁻¹ s⁻¹ and should not be typed.

Notebook: O=C1c2ccccc2S(=O)(=O)N1CSc1nc2ccc([N+](=O)[O-])cc2s1 [Example 30BD] , kon read as 11700

Kindly note the recorded kon for O=C(O)c1ccc(-n2nnnc2SCN2C(=O)c3ccccc3S2(=O)=O)cc1 [Example 30D] , which is 800

The reported value for CCC(C)c1cccc2c1C(=O)N(CCl)S2(=O)=O (centres unmarked) [Example 22B, 2-chloromethyl-4-sec.-butylsaccharin] in terms of kon is 2400

The compound listed as O=C1c2ccccc2S(=O)(=O)N1CS(=O)(=O)c1c(Cl)cccc1Cl [Example 32A] has a reported kon of 600

Entry CC(C)c1cccc2c1C(=O)N(CSc1nnnn1CCN1CCOCC1)S2(=O)=O [Example 30BI] , kon reported as 39000

Item: COC(=O)c1cn(-c2ccccc2)c(SCN2C(=O)c3ccccc3S2(=O)=O)n1 [Example 30AR] | kon: 300

Per the records, this compound ( O=C1C=Cc2ccc(OCN3C(=O)c4ccccc4S3(=O)=O)c3cccc1c23 [Example 30G] ) has kon equal to 9300

get_value(item= CCOc1cccc2c1C(=O)N(CSc1nnnn1CC(=O)N(C)C)S2(=O)=O [Example 30AX] , readout=kon) returns 7500

---

- TGT: human leukocyte elastase (Homo sapiens, UniProt P08246)
- ASSAY_PROCEDURE: elastase inhibition using human leukocyte elastase (kon and Ki*)
- Assay type: biochemical
- CONDITIONS: rate of inactivation of enzyme; value is 10^-3 × kon; read-out: Elastase 10^-3 × kon
We use 1000 M⁻¹ s⁻¹ as the dividing line for kon: on or above the line is 1, below is -1.

Ask | Item CCOC(=O)Cn1nnnc1SCN1C(=O)c2ccccc2S1(=O)=O [Example 30AP] with kon of 1000 M⁻¹ s⁻¹ or above?
Reply | 1

Ask | hey, is kon for this one >= 1000 M⁻¹ s⁻¹? CSc1nn(CN2C(=O)c3ccccc3S2(=O)=O)c(=S)s1 [Example 30AD]
Reply | 1

Ask | Hello, I need to know if CCC(CC)c1cccc2c1C(=O)N(CCl)S2(=O)=O [Example 22C, 2-chloromethyl-4-(3-pentyl) saccharin] has measured kon not below 1000 M⁻¹ s⁻¹. Thanks!
Reply | 1

Ask | Is kon at least 1000 M⁻¹ s⁻¹? Consider O=C(O)c1cccc(-n2nnn(CN3C(=O)c4ccccc4S3(=O)=O)c2=S)c1
Reply | -1

Ask | Please indicate if the recorded kon for O=C1c2ccccc2S(=O)(=O)N1C[S+]([O-])c1ncccn1 (centres unmarked) meets or exceeds 1000 M⁻¹ s⁻¹.
Reply | -1

Ask | Would you say O=C1c2ccccc2S(=O)(=O)N1CSc1nnnn1CCO [Example 30AQ] shows kon at minimum 1000 M⁻¹ s⁻¹?
Reply | -1

Ask | # check: kon of CN(C)CCSc1nnc(SCN2C(=O)c3ccccc3S2(=O)=O)s1 [Example 33B] is greater than or equal to 1000 M⁻¹ s⁻¹
Reply | 1

Ask | kon >= 1000 M⁻¹ s⁻¹ for O=C1c2ccc([N+](=O)[O-])cc2S(=O)(=O)N1CSc1nnnn1-c1ccccc1 [Example 31C] ?
Reply | 1

Taken from patent US5874432A.
